# assayed target: Gamma-butyrobetaine dioxygenase (Homo sapiens)
# test description: Inhibition of human recombinant BBOX expressed in Saccharomyces cerevisiae AH22 assessed as formation of carnitine from gamma-butyrobetaine preincubated for 15 mins measured after 30 mins by UPLC-MS/MS analysis
pIC50: −log10 of the molar value.
Measured pIC50 values are reported for all entries that follow.

item smiles	pIC50
C=CC[N+](C)(C)NCCC(=O)[O-]	3.92
C[N+](C)(CCCC(=O)[O-])CC1CCC1	< 3.00
COC[N+](C)(C)CCCC(=O)[O-]	< 3.00
CCC[N+](C)(C)CCCC(=O)[O-]	< 3.00
C[N+](C)(C)NCCS(=O)(=O)[O-]	4.06
CC[N+](C)(CC)NCCC(=O)O	< 3.00
C[N+](C)(C)CCCc1nnn[nH]1	< 3.00
C[N+](C)(CBr)CCCC(=O)[O-]	< 3.00
C[N+](C)(CCCl)NCCC(=O)O	4.99

---

# assayed target: Gamma-butyrobetaine dioxygenase (Homo sapiens, UniProt O75936)
# Sequence (O75936 whole entry): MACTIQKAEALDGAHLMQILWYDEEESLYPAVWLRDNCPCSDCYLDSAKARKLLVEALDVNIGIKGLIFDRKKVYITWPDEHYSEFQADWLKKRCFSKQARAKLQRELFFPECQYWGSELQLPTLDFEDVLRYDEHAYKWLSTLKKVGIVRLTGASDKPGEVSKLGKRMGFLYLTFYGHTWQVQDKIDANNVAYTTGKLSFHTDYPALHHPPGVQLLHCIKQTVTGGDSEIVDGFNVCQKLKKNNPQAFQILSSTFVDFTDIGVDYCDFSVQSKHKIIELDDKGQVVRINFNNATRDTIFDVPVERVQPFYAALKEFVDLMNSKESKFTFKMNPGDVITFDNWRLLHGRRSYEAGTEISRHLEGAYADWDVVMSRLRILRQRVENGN
# test description: Inhibition of human recombinant BBOX expressed in Saccharomyces cerevisiae AH22 assessed as formation of carnitine from gamma-butyrobetaine preincubated for 15 mins measured after 30 mins by UPLC-MS/MS analysis
value type: IC50

compound	value type	reported
C#CC[N+](C)(C)NCCC(=O)O	IC50	24 µM
CC(C)[N+](C)(C)NCCC(=O)[O-]	IC50	> 1000 µM
C[N+](C)(CCCC(=O)[O-])C1CCC1	IC50	0.81 µM
C[N+](C)(CCO)NCCC(=O)[O-]	IC50	1000 µM
C=C[N+](C)(C)NCCC(=O)[O-]	IC50	6.8 µM
C[N+](C)(C)NCCP(=O)(O)O	IC50	117 µM
C[N+](C)(C)CCCCC(=O)[O-]	IC50	> 1000 µM
C[N+](C)(CCCC(=O)[O-])C1CCCC1	IC50	> 1000 µM
C[N+](C)(C)CCCS(=O)(=O)[O-]	IC50	1.7 µM
C[S+](C)CCCC(=O)[O-]	IC50	388 µM
CC[N+](C)(CC)CCCC(=O)[O-]	IC50	100 µM
O=C(O)CCCN1CCCC1	IC50	1000 µM
C[N+](C)(CCCC(=O)[O-])Cc1ccccc1	IC50	> 1000 µM
C[N+](C)(CCF)CCCC(=O)O	IC50	0.61 µM
C[N+](C)(CI)CCCC(=O)[O-]	IC50	1000 µM
CC[N+](C)(C)CCC[PH](=O)[O-]	IC50	0.53 µM
C[N+](C)(CCl)CCCC(=O)[O-]	IC50	268 µM
C[N+](C)(C)CC(Cl)CC(=O)O (stereo unspecified)	IC50	459 µM
C[N+](C)(C)C1CCCC(C(=O)[O-])C1 (stereo unspecified)	IC50	> 1000 µM
C[N+](C)(C)CCC[PH](=O)[O-]	IC50	0.52 µM
C[N+](C)(CCN)NCCC(=O)[O-]	IC50	> 1000 µM
